- methodNotes: AUC (0 to infinity) in mouse at 3 mg/kg, iv by LC-MS/MS analysis
- Assay type: ADME, organism-based
- Set-up: dose 3 mg/kg, route intravenous, time infinity
- conditionsUsed: in vivo
assayReadout: AUC(0-inf) (ng·h/mL)
// note: answer is a bare numeric in ng·h/mL

Item `COCCN[C@H]1CC[C@H](Nc2cc(-c3csc(NCC4(C#N)CCOCC4)n3)c(Cl)cn2)CC1` : provide AUC(0-inf)
408

* * *

- tgt: CDK9/Cyclin K (Homo sapiens)
- Sequence (P50750 whole entry): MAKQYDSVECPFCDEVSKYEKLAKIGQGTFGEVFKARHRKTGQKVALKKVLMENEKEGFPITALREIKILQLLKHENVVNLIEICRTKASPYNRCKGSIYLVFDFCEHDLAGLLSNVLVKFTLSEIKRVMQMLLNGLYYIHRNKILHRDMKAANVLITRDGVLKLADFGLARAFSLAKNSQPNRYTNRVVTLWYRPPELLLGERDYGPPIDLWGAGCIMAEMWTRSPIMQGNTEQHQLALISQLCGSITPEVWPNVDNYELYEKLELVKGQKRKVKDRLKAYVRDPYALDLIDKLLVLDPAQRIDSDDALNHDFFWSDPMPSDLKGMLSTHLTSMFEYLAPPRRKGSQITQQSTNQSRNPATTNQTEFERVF
- Sequence (O75909 whole entry, further chain): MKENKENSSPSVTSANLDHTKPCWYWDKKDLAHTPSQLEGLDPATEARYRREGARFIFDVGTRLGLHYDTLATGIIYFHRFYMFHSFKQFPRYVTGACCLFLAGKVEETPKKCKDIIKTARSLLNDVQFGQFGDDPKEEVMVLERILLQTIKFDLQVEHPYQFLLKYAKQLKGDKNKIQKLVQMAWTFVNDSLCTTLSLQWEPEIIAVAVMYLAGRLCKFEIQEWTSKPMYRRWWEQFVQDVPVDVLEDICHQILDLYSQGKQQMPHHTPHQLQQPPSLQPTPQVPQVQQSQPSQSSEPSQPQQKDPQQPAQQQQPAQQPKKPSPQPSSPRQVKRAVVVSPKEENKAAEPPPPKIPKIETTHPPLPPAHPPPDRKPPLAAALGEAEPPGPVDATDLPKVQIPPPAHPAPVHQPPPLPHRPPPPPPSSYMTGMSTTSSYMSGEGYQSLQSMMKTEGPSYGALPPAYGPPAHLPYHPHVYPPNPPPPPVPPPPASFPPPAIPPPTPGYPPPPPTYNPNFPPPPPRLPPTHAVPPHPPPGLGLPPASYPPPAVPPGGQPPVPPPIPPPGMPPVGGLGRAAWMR
- methodNotes: Inhibition of CDK9/Cyclin K (unknown origin) using PDKtide as substrate incubated at 37 degreeC for 1 hr followed by incubation at room temperature for 5 mins by ADP-Glo reagent based luminescence assay
Exercise: state measured IC50 for each of the molecules provided.
Expressed in µM, but write only the number.

Would you please give the reported IC50 of COCCN[C@H]1CC[C@H](Nc2cc(-c3csc(NCC4C5CC6CC(C5)CC4C6)n3)c(Cl)cn2)CC1 (some centres undefined) with CDK9/Cyclin K (Homo sapiens)?
0.094

Name the recorded IC50 of COCCN[C@H]1CC[C@H](Nc2cc(-c3csc(NCC4CCOC4)n3)c(Cl)cn2)CC1 (some centres undefined) , assay system CDK9/Cyclin K (Homo sapiens).
0.09

Enter recorded IC50 with CDK9/Cyclin K (Homo sapiens) for `CC(=O)N[C@H]1CC[C@H](Nc2cc(-c3csc(NCC4CCOCC4)n3)c(Cl)cn2)CC1` here.
0.101

Jot down IC50 (CDK9/Cyclin K (Homo sapiens)) of `COCCN[C@H]1CC[C@H](Nc2cc(-c3csc(NCC4CC4)n3)c(Cl)cn2)CC1` .
0.096

Provide IC50, recorded with CDK9/Cyclin K (Homo sapiens), of `N[C@H]1CC[C@H](CNc2cc(-c3csc(NCC4CCOCC4)n3)c(Cl)cn2)CC1`
0.084

Report value: IC50, system: CDK9/Cyclin K (Homo sapiens), molecule: `CNc1nc(-c2cc(N[C@H]3CC[C@H](NCCOC)CC3)ncc2Cl)cs1`
0.101

Recall the reported IC50 of `COCCN[C@H]1CC[C@H](Nc2cc(-c3csc(NCC4CCC4)n3)c(Cl)cn2)CC1` when tested on CDK9/Cyclin K (Homo sapiens).
0.107

// fetch IC50 for `COC[C@H](C)N[C@H]1CC[C@H](Nc2cc(-c3csc(NCC4(C#N)CCOCC4)n3)c(Cl)cn2)CC1` ; system: CDK9/Cyclin K (Homo sapiens)
0.01

* * *

- methodNotes: Half life in Sprague-Dawley rat at 20 mg/kg, po by LC-MS/MS analysis
- Format: ADME, organism-based
- conditionsUsed: in vivo
assayReadout: half-life (h)
Hi! Could you send only the number? It should be in h, unit omitted.

Return reported half-life. Input compound: `COCCN[C@H]1CC[C@H](Nc2cc(-c3csc(NCC4(C#N)CCOCC4)n3)c(Cl)cn2)CC1`
3.37

* * *

- methodNotes: Oral bioavailability in Sprague-Dawley rat at 20 mg/kg by LC-MS/MS analysis
- Assay type: ADME, organism-based
- conditionsUsed: in vivo
assayReadout: bioavailability (%)
Quick reminder: number only, in %, skip the unit.

In one line, give reported bioavailability of the entry `COCCN[C@H]1CC[C@H](Nc2cc(-c3csc(NCC4(C#N)CCOCC4)n3)c(Cl)cn2)CC1` .
45.1
